- assay.procedure: Antiproliferative effects against human SHEP cells after 72 hrs by Alamar blue assay
Exercise: state measured log10 IC50 for each of the compounds provided.
Please be aware that the numbers have been log10-transformed from IC50 in µM.

log10 IC50 for Oc1ccc(C2=COc3cc(O)ccc3C2)cc1 is 0.92

Field log10 IC50 (entry Oc1ccc(C2=Cc3cc4c(cc3OC2)OCN(Cc2ccccc2)C4)cc1 ) reads 0.76

CN1COc2cc3c(cc2C1)C=C(c1ccc(O)cc1)CO3 yielded log10 IC50 of 0.82

Sure, the documented log10 IC50 for CCCCN1COc2cc3c(cc2C1)C=C(c1ccc(O)cc1)CO3 is 0.59

The recorded log10 IC50 for entry Oc1ccc(C2=Cc3cc4c(cc3OC2)OCN(CCc2ccccc2)C4)cc1 equals -0.15

Quick note, log10 IC50 for Oc1ccc(C2=Cc3cc(CN4CCOCC4)c(O)c(CN4CCOCC4)c3OC2)cc1CN1CCOCC1 landed at 1.84

The reported value for C1=C(c2ccc3c(c2)CN(Cc2ccccc2)CO3)COc2cc3c(cc21)CN(Cc1ccccc1)CO3 in terms of log10 IC50 is 0.57

Reported log10 IC50 for Oc1ccc(C2=Cc3cc(CN4CCOCC4)c(O)cc3OC2)cc1CN1CCOCC1 was 2.23

// OCCNCc1cc2c(cc1O)OC=C(c1ccc(O)cc1)C2 : log10 IC50 value = 1.44

Lab note: measured log10 IC50 of CCCCNCc1cc2c(cc1O)OC=C(c1ccc(O)cc1)C2 was 0.60
